- target.entity: T1, RAD52 full length (human, UniProt P43351 1-418)
- T1 sequence: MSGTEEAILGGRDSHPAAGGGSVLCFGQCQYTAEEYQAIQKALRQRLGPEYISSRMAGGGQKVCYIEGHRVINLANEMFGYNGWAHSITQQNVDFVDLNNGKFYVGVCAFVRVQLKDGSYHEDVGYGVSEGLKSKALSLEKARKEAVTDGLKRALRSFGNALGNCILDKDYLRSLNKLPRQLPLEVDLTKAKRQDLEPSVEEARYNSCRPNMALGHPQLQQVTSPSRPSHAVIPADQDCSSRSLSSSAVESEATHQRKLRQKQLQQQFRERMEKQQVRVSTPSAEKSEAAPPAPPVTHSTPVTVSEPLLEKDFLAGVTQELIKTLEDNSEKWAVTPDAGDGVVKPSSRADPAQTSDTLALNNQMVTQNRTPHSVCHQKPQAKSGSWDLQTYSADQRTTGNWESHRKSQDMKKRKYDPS
- method.description: EMSA; 37 C; Hill 3.3 ± 0.2; EMSA: 25 mM Tris-acetate, 2 mM Mg(OAc)2, 1 mM DTT, pH 7.5, 10 nM ssDNA, 25 C 10 min or 37 C 5 min; mass photometry: 20 mM Tris-HCl, 50 mM NaCl, pH 7.5
- settings: protein: recombinant; tags: His-tag (pET-15b)
quantity.name: pKd
// scale note: pKd = -log10(conc_M); give the bare number

The binder listed as 60 nt (ssDNA) DNA: TCCTTTTGATAAGAGGTCATTTTTGCGGATGGCTTAGAGCTTAATTGCTTTTTTTTTTTT shows pKd equal to 6.95
